Recorded below: pIC50, system Flt3 (Homo sapiens, UniProt P36888).
Entry type: numeric. Quantity: pIC50, the -log10 of concentration in molar units.

[[record]]
compound = "CCN1CCN(c2ccc(NC(=O)Nc3ccc(-c4cc(C(=O)NC)c5ncccc5n4)cc3)cc2C(F)(F)F)CC1 [Compound 13c]"
obs_value = 6.32


// moving on: another record for pIC50
Incoming: Need pIC50 of CNC(=O)c1cc(-c2ccc(NC(=O)Nc3ccc(N4CCN(C)CC4)c(C(F)(F)F)c3)cc2)nc2cccnc12 [Compound 13b] , thanks.
Outgoing: 6.44

###

System: UO-31
Assay: NCI-60 cell line panel: UO-31
Type: cell-based
Parameters: unit not given here
Conditions: Renal Cancer, total growth inhibition
assay-metric: TGI
Answer as a number with no unit attached.

[[record]]
compound = "CCN1CCN(c2ccc(NC(=O)Nc3ccc(-c4cc(C(=O)NC)c5ncccc5n4)cc3)cc2C(F)(F)F)CC1 [Compound 13c]"
obs_value = 5.14

[[record]]
compound = "CNC(=O)c1cc(-c2ccc(NC(=O)Nc3ccc(N4CCN(C)CC4)c(C(F)(F)F)c3)cc2)nc2cccnc12 [Compound 13b]"
obs_value = 29.2

[[record]]
compound = "CC(C)NC(=O)c1cc(-c2ccc(NC(=O)Nc3ccc(N4CCN(C)CC4)c(C(F)(F)F)c3)cc2)nc2cccnc12 [Compound 13e]"
obs_value = 1.11


Incoming: Need TGI of CCN1CCN(c2ccc(NC(=O)Nc3ccc(-c4cc(C(=O)NC(C)C)c5ncccc5n4)cc3)cc2C(F)(F)F)CC1 [Compound 13f] , thanks.
Outgoing: 6.81

Incoming: What do we get for CNC(=O)c1cc(Oc2ccc(NC(=O)Nc3ccc(Cl)c(C(F)(F)F)c3)cc2)ccn1 [Sorafenib, reference compound] ?
Outgoing: 6.31
